TEST_TARGET: T1, ZH 06 as periplasmic ABD fusion AQHDEALE-[ZH 06]-VDYV-[ABD]-YVPG (Streptococcus strain G148, UniProt P19909 254-299, limits assumed)
T1 construct: domain: GA3
TEST_DETAILS: SPR (Biacore 2000) screening; periplasmic Z-ABD captured on anti-ABD antibody, 200 nM boxA(disulfide); 1:1 model
RESULT_TYPE: Kd

What value of Kd has been reported for the following binder? boxA(disulfide), disulfide linked form of A-box domain of HMGB1 (other, disulfide C23-C45, also called b-boxA(disulfide)) MGKGDPKKPRGKMSSYAFFVQTCREEHKKKHPDASVNFSEFSKKCSERWKTMSAKEKGKFEDMAKADKARYEREMKTYIPPKGETKKKF ~71 nM
